Assay: in vitro
Conditions: CD-1, mouse, liver microsomes
quantityName: half-life at 1 µM (min)
Give bare numbers, in min.

Here is how some molecules turned out for half-life at 1 µM.
{"columns": ["smilesStructure", "readingUnit", "half-life at 1 µM"],
 "data": [
  ["O=C(Nc1ccc(-c2nc(N3CCOCC3)c3ncccc3n2)cc1)Nc1ccc(S(=O)(=O)Nc2ccccc2)cc1", "min", 16.6],
  ["O=C(Nc1ccc(-c2nc(N3CCOCC3)c3cccnc3n2)cc1)Nc1cccc(CO)c1", "min", 30],
  ["CC(=O)c1ccc(NC(=O)Nc2ccc(-c3nc(N4CCOCC4)c4cccnc4n3)cc2)cc1", "min", 59]
]}

Please find the next molecule below.
# query: half-life at 1 µM of entry `O=C(Nc1ccc(-c2nc(N3CCOCC3)c3cccnc3n2)cc1)Nc1ccc(S(=O)(=O)Nc2ccccc2)cc1`
26.9

---

Test: in vitro
Details: CD-1, mouse, liver microsomes
quantityName: half-life at 1 µM (min)
One number for each entry, in min.

// worked examples, half-life at 1 µM included
{"columns": ["molecule", "readingUnit", "half-life at 1 µM"],
 "data": [
  ["Oc1cccc(-c2nc(N3CCOCC3)c3oc4ncccc4c3n2)c1 [PI-103]", "min", 7.1],
  ["O=C(Nc1ccc(-c2nc(N3CCOCC3)c3cccnc3n2)cc1)Nc1ccc(S(=O)(=O)Nc2ccc(F)cc2)cc1", "min", 59.6]
]}

Each molecule below has a recorded value; state its half-life at 1 µM.
1. O=C(Nc1ccccc1)Nc1ccc(-c2nc(N3CCOCC3)c3ncccc3n2)cc1
2. O=C(Nc1ccc(-c2nc(N3CCOCC3)c3cccnc3n2)cc1)Nc1ccc(S(=O)(=O)Nc2ccc(F)cc2F)cc1

22.3
60

The reported measurements were obtained from ChEMBL document CHEMBL4020805.
